Assay: Interfacial tension of the lipid against water (measure of polarity)
Type: physicochemical
Settings: lower value = more polar oil
Readout name: Grenzflächenspannungen gegen Wasser

A selection of reference data follows.
- Compound: "CCCCCCCCCCCCCCCCCC(=O)OCCCCCCCC [Cetiol® 868, Octyl Stearate]"
  Grenzflächenspannungen gegen Wasser: "28,4 mN/m"
- Compound: "CCCCCCCC(=O)OCC(COC(=O)CCCCCCC)OC(=O)CCCCCCC [Trivent® OCG, Tricaprylin]"
  Grenzflächenspannungen gegen Wasser: "20,2 mN/m"

From here, focus on the item given below.
QUERY: Given the entry CCCCCCCCCCC(CO)CCCCCCCC (stereo not drawn) [Eutanol® G, Octyldodecanol] , report its measured Grenzflächenspannungen gegen Wasser.
RESULT: 24,8 mN/m
